meta.source: ChEMBL document CHEMBL1138390

Recorded measurements of inhibition, one per entry
target: Voltage-dependent N-type calcium channel subunit alpha-1B (Homo sapiens); experiment: Inhibition of N-type calcium channel expressed in HEK293 cells co-expressing Alpha-1B subunit at 10 uM; type: cell-based

{"molecule": "COC(=O)CC1c2ccccc2N=C(N(C)CCCCCN2CCCC2)N1c1ccc(-c2ccccc2)cc1 (centres undefined)", "tested-system": "Voltage-dependent N-type calcium channel subunit alpha-1B (Homo sapiens)", "inhibition": "36.5%"}
{"molecule": "COC(=O)CC1c2ccccc2N=C(N(C)CCCCCN2CCCC2)N1c1ccccc1 (centres undefined)", "tested-system": "Voltage-dependent N-type calcium channel subunit alpha-1B (Homo sapiens)", "inhibition": "10.7%"}
{"molecule": "CN(CCCCCN1CCCC1)C1=Nc2ccccc2C(CC(=O)NCc2ccccc2)N1c1ccc(-c2ccccc2)cc1 (centres undefined)", "tested-system": "Voltage-dependent N-type calcium channel subunit alpha-1B (Homo sapiens)", "inhibition": "11.7%"}
{"molecule": "CN(CCCCCN1CCCC1)C1=Nc2ccccc2C(CC(=O)NCc2ccccc2)N1c1ccccc1 (centres undefined)", "tested-system": "Voltage-dependent N-type calcium channel subunit alpha-1B (Homo sapiens)", "inhibition": "46.3%"}
